Where do these numbers come from? They come from the DeepSol protein solubility set.

Experiment: soluble on expression in E. coli; label from the status in PepcDB or PDB records
Value Type: soluble on expression in E. coli

See these solved cases before continuing.
[[record]]
residue_codes = "LCPDAVAGIAVAAPHIYVEDITVANIAVALRAYRETTLRDRLARYHDDVDSTFASWTDTWLDPAFRQWNIEAYLPAITCPMLAMQGVDDEYGTLEQIRGIRRLAPQTRLLEIQDCGHSPHKDQPELVTRALAGFV"
recorded_measurement = "not soluble"

[[record]]
residue_codes = "MAQREWVEKDFYQELGVSSDASPEEIKRAYRKLARDLHPDANPGNPAAGERFKAVSEAHNVLSDPAKRKEYDETRRLFAGGGFGGRRFDSGFGGGFGGFGVGGDGAEFNLNDLFDAASRTGGTTIGDLFGGLFGRGGSARPSRPRRGNDLETETELDFVEAAKGVAMPLRLTSPAPCTNCHGSGARPGTSPKVCPTCNGSGVINRNQGAFGFSEPCTDCRGSGSIIEHPCEECKGTGVTTRTRTINVRIPPGVEDGQRIRLAGQGEAGLRGAPSGDLYVTVHVRPDKIFGRDGDDLTVTVPVSFTELALGSTLSVPTLDGTVGVRVPKGTADGRILRVRGRGVPKRSGGSGDLLVTVKVAVPPNLAGAAQEALEAYAAAERSSGFNPRAGWAGNR"
recorded_measurement = "soluble"

[[record]]
residue_codes = "LHRILKVVFPKRKIVLWVIGGDLHLEVEKGRYRVDVLKSLQYLLVEGQAMKDALCGQGVENVKVMPNFKDISLFSPLHCHTPYTPSKVLRLVFFSRIMPDKGCDLILDLAHKLNERGYKDKFVIDFYGPIAPDYSKRFSSILDTLPNVHYQGTLD"
recorded_measurement = "not soluble"

[[record]]
residue_codes = "STWTPRNRSEDEEEDENIDLEKNDDDEPNKPTDKGDSTDTEADHKLINPGEIPCDRFKDETHSKDLDPPLTDSELKEGEERTDLLAEQAKPTTSSPSVLQRGSDLITQEKPSEPGHAASTGNSNVTSVIHSPPSAPKPKLWSLAEIATSSDRCKGSSEASQAAGLSQSTVIASAASPTRSSPQCPLPNNTVLSRPIYYTSPFYPGYTNYSTFGHLHSSHGTNTSSTAHFNGLSQTVLNRAEALVRESKVRSQTQVDLCKDSPYELKKGMSNI"
recorded_measurement = "not soluble"

[[record]]
residue_codes = "GPGSMENKDVATSWDYNSAEIGEFVPNSCTGTHFPNGIACAPWFQQQVTSQPHLCSSEFASSVESVGGPACRVGSEGSDYCFMNKSVCRNEEEGAEEVEGNEGESNLRWGMHIHPAALRAVQASSREVVQGLIRDKELLCSQFGTMQQNIPLAITWHDTTAPSPNQTLASTFTPLPHKKRSRDLVTLLSGISPDWEAAEEVGGASAAAHVGGLEIQRKRFRVDNPTIGSAAYEVSKAATAASPKPWIKARQKRVREEGDEDVNVNVEWGRGRDGNENSGR"
recorded_measurement = "soluble"


Quickly give me recorded soluble on expression in E. coli for `MSPAITRKRFIAGAVCPACSEQDKIQMWEEDGVPHRECVACGYADTLNAQGQSIPKELGTRVNQNAPKPANPKVQSVQFFPNPKLKKKPDA` not soluble

Quickly give me recorded soluble on expression in E. coli for `MKFIFFVLYVLQFLPFALLHKIADLTGLLAYLLVKPRRRIGEINLAKCFSEWSEEKRKTVLKQHFKHMAKLMLEYGLYWYAPAGRLKSLVRYRNKHYLDDALAAGEKVIILYPHFTAFEMAVYALNQDIPLISMYSHQKNKILDEQILKGRNRYHNVFLIGRTEGLRALVKQFRKSSAPFLYLPDQDFGRNDSVFVDFFGIQTATITGLSRIAALANAKVIPAIPVREADNTVTLHFYPAWKSFPGEDAKADAQRMNRFIEDRVREHPEQYFWLHKRFKTRPEGSPDFY` not soluble

====

Assay: soluble on expression in E. coli; label from the status in PepcDB or PDB records
Value Type: soluble on expression in E. coli

[[record]]
residue_codes = "MSLDIHEGNLMPAKRKLTMRHIRQMLRLAGSGTSSREIAVMLGIARSTVQDNLKRAAMAGLSWALASGLTDDVLEAKLFVHPGVKRGQRLRQEPDWGPLSIELKKPGVTLLILWEEYRSAHPDGYGYSRFCELFRGFEKRLSPTMRQEHIAGDKVFVDYSGKKVPIVDRKTGEIREAELFLGVLGASSYCTRGRSVHLGELLRRAWIFQHLGNREGHHHHHH"
recorded_measurement = "soluble"

[[record]]
residue_codes = "MAEKLSAHCHCGAVAFTVELSDGFNTVRRCNCSYCRMRGAVAVSSPRSGIEVVRGGDKLTEYRFNTGEAVHFFCSVCGIYTFHQRRSNPQQYGVNVACIDGVSPFDFP"
recorded_measurement = "not soluble"

[[record]]
residue_codes = "EVKVEESGGGLVQPGGSMKLSCVASGFTFSNYWMEWVRQSPEKGLEWVAEIRLKSNNYATHYAESVKGRFTISRDDSKSSVYLQMNNLRAEDTGIYYCTRGGAVGAMDYWGQGTSVTVSSATTTAPSVYPLVPGCSDTSGSSVTLGCLVKGYFPEPVTVKWNYGALSSGVRTVSSVLQSGFYSLSSLVTVPSSTWPSQTVICNVAHPASKVDLIKEPSGP"
recorded_measurement = "soluble"

[[record]]
residue_codes = "TVLENGSWLIDGDTPVNKLKYVLSVDSFPGEEQGYYLTIAGLIMYILQRIPKTGDHMEFNGLRYEVVDMDGIRIDKVMVTKVPEISKD"
recorded_measurement = "not soluble"


====

Assay: soluble on expression in E. coli; label from the status in PepcDB or PDB records
Value Type: soluble on expression in E. coli

[[record]]
residue_codes = "MGSDKIHHHHHHLDFRLLRYFVAVAEELHLARAAERLGIEQSPVSRAMRDLESQLGVQLFDRSTRLTRLTWAGQVFLGECRRVMATVEQAVKSAKAAAQGYQGHLRIAICDSLAQPRIATLLARSREEEPELEIRVFELPFAQQLKMLHDDLLDIGFALSNAVHDGLVAEPVWTDPLSVIVPARHPLLAHVQVPLPEALKFPLVLCHPESGSGCRHQIQALLQDAGTPLKLVDEVTSLGVMLTLVGAGYGIGFAIASQVQTLQRPDISIRPLAGTPPMLSTYLLRRRGEPSEPMRRFIERVKDGAAPVDDEPVL"
recorded_measurement = "not soluble"

[[record]]
residue_codes = "MSKLYFRYGAMNSGKSTHLMQVAHNYEERGMEVIIIKPSTDKKGGDKVVSRLGVERVVDILIDNDENIIETIEDRLEKGRKIDCIIVDEVQFLKAHHIDELFEIAVGKGIPVICYGLRTDFQMNGFEGSERLLLLAHSIEEMKTICRCGRKAILNGRMINGKFTFEGEQVAIDLVDNVEYQSLCGQCYFKYKYGKDSDNLEHHHHHH"
recorded_measurement = "soluble"

[[record]]
residue_codes = "LDRQTERLQQGEVDVRFNMVSRMLDHPDLAERWPHLQGKLDNLSQEYELIRFWIDSDDPRYHYGRFSEPVQRLIADGAGRYELELPEHRYALTARVGVLPAREGRPRLTYVTAIDSAAFHEARTSTLKW"
recorded_measurement = "not soluble"

[[record]]
residue_codes = "SLAVDQTRYIFRGDKDALTITVTNNDKERTFGGQAWVDNIVEKDTRPTFVVTPSFFKVKPNGQQTLRIIMASDHLPKDKESVYWLNLQDIPPALEGSGIAVALRTKLKLFYRPKALLEGRKGAEEGISLQSRPDGRTMLVNTTPYIFAIGSLLDGNGKKIATDNGTTQKLLMFMPGDEVQVKGNVVKVDSLNDYGELQTWTINKKKPAAPEAAKAEKADTAEQK"
recorded_measurement = "soluble"


====

Assay: soluble on expression in E. coli; label from the status in PepcDB or PDB records
Value Type: soluble on expression in E. coli

[[record]]
residue_codes = "MLIHMKSRKMNLNKLEDGGSWFSRLKQFLQGEPQNQEELVSLLRDAQIRSLINSETLAMIEGAILFSKMRVRDIMLPKNQMVCINKDDDFKHIISIVTQTGHSRFPVTGENSDEVVGILHAKDLLKYQPENMESFDLLDICRQVTFVPESRRLDSLLSEFRSNRNHMAIVVDEYGEVSGFVTIEDIIEQIIGDIEDEFDIDEDAYIKTHEGHCYIIKAHTPIEEFNEQLNADFSDETYDTIGGIVLNKFGYLPQRGEVIIIDDFEFKVLNADSRRIKLLECLDKRSPEKLNSTVEG"
recorded_measurement = "not soluble"

[[record]]
residue_codes = "MSDTANAAVEIGEEALEQKLEELSVQDKTTPSNSEEKMRKRRLPTAERIRLWEEEQKSKTAITTGLQGKVKWYSVLRRYGFISRNDGEKDIFVHQTAIAKSATEKFYLRTLGDDEEVLFDLVEGKNGPEAANVTGPNGDNVIGSRYRHKLLSRFRKNRKPRASVDGEESQSTDAKPQEMSADAEKKKPRKQRKNRNRKSKAQQKGAGDAADSSAVTESSESASDVASPDSKSCSKIITEEAGLSKVDRCDSALGEAGLGAQPIDAQI"
recorded_measurement = "soluble"

[[record]]
residue_codes = "MGSDKIHHHHHHMDSGMNEKTTAELEHLRGLIDGVDQQLLHLLRKRLDLVAQVGTVKHGAGLPIYAPQREAAMLAKRREEAKNMGIAPQLIEDILRRLMRESYLNEKDVGFKQVKKDLGSVVIVGGKGQLGGLFSQMLTLSGYQVNLLDKDDWQQADSLFADAGMVLVTVPIAITCELIREKLTQLPADCILADLTSIKTEPVKAMLEAHSGPVVGFHPMFGPDVGSLAKQVVVVCHGRSPEKYQWLLEQIAIWGARIVEAEPERHDSAMQLVQAMRHFSTFVYGLNLCKEEADIDTLLQFSSPIYRLELAMVGRLFAQSPELYADIIFAQQDSQHAIGDYLDNYREALELLKRGDRNEFIKQFQSVAKWFGDFAPQFQRESRIMLQSVNDMKTN"
recorded_measurement = "not soluble"

[[record]]
residue_codes = "VVAPITTGYTVKISNYGWDQSDKFVKIYITLTGVHQVPTENVQVHFTERSFDLLVKNLNGKSYSMIVNNLLKPISVEGSSKKVKTDTVLILCRKKVENTRWDYLTQVEKECKEK"
recorded_measurement = "soluble"


Quickly give me recorded soluble on expression in E. coli for `MGSDKIHHHHHHMLLTTRPPSPDSIPCCAGCSMARVCLAGNCDSDGEGPADGLAQRVIRLRKGEPLYLLGDPLAALFAVRVGTVKTHVATEDGRTQVVGFHFPGEVVGLDSIGRRQYASYATALEDTKVCMIPMDVLRPLAACTPALASRVFRALDGYAQRTRALQTLLALMTAEERLVTFLLWISEGLAARGFSSSEFILRMSREEIGSYIGLTLETVSRQFSRLAECGLIRVKHRSVALVDKAGLRAIADRSAISPIPPGTNRRRGGEQRVPAQALRTSAPAWATRTQPATAAMQADNPKINPFAWEAGNGQQ` not soluble
